Reported Property: melting point

C(=C\c1nc2ccccc2n1-c1ccccn1)/c1ccoc1 : 162 to 164 °C

# melting point lookup, item CC(=O)Nc1ccc2c(c1)C(CN1CCC(c3ccc(F)cc3)CC1)CC2 (centres undefined)
145 to 146 °C

# melting point lookup, item Fc1ccc(-c2ccn(C3CCN(Cc4ccccc4)CC3)c2-c2ccncc2)cc1
132 to 139 °C

# melting point lookup, item CCOC(=O)/C=C/c1ccc(OCCCC#N)cc1Oc1ncc(C(F)(F)F)cc1Cl
106 to 107 °C

# melting point lookup, item NC(=O)C(N)c1ccc(Cl)cc1Cl (centres undefined)
114 °C

# melting point lookup, item CCCCCC(CC(=O)Nc1cc(C(=O)NC(=O)c2ccncc2)ccc1C(C)(C)C)c1ccc(OC)cc1OC (centres undefined)
184 to 185 °C

# melting point lookup, item CCOC(=O)c1cnc2n(c1=O)C(C)CCC2=NNc1ccc(Cl)cc1 (centres undefined)
177 to 178 °C

# melting point lookup, item Cn1cnnc1C(c1ccc(C#N)cc1)c1cc2c3c(c1)c(-c1cccc(Cl)c1)cc(=O)n3CC2 (centres undefined)
174 °C

# melting point lookup, item Cc1ccc(Oc2ccc(Oc3ccc(C)c(C)c3)cc2)cc1C
106 °C

Just for reference, a melting point compilation (Tetko et al.; mined from patent text by program, amines drawn as free bases though some values may be those of a salt) is where these values come from.
